target: SARS-CoV-2 M^pro (Severe acute respiratory syndrome coronavirus 2); assay: biochemical; format: biochemical
Numbered stars: 1 amine (or outer) side, 2 acyl side, 3 side chain; on linkers, the order of the positions; unused ones are H or OH. Bridge positions count the residues as written; N and C are the ends. Square brackets hold non-standard residues; d marks the D form. Peptide text beside a SMILES is read from it. Acbc(cis-1,3) = O=C([C@H]1C[C@@H](N[*:1])C1)[*:2]; X1 = O=C([C@@H]1CC[C@H](N[*:1])C1)[*:2]
Would you mind telling me the reported inhibition at 2.75 µM of each entry?
One number for each entry, in %.

See these solved cases before continuing.
Answer with the recorded inhibition at 2.75 µM for the compound listed here: CC[C@H](C)[C@@H]1NC(=O)[C@H](CO)NC(=O)[C@H](Cc2ccccc2)NC(=O)[C@H]2C[C@H](C2)NC(=O)[C@H](Cc2c[nH]cn2)NC(=O)[C@H](Cc2ccccc2)NC(=O)[C@@H](Cc2ccc(O)cc2)NC(=O)CSC[C@H](C(N)=O)NC(=O)[C@H](CC(C)C)NC(=O)[C@H](CCCNC(=N)N)NC(=O)[C@H](Cc2ccc(O)cc2)NC(=O)[C@H](CCCNC(=N)N)NC(=O)[C@H](Cc2ccccc2)NC1=O [GM2] ({CH2CO}-[dY]FH[Acbc(cis-1,3)]FSIFRYRL[dC]-NH2; thioether N-13) 75.7

Answer with the recorded inhibition at 2.75 µM for the compound listed here: CC(C)C[C@@H]1NC(=O)[C@@H](Cc2ccc(O)cc2)NC(=O)CSC[C@H](C(N)=O)NC(=O)[C@H](C)NC(=O)[C@H](C)NC(=O)[C@H](Cc2ccc(O)cc2)NC(=O)[C@H](CCCNC(=N)N)NC(=O)[C@H](Cc2ccc(O)cc2)NC(=O)[C@H](C)NC(=O)[C@H](CO)NC(=O)[C@H](Cc2ccc(O)cc2)NC(=O)[C@H]([C@@H](C)O)NC(=O)[C@H](CO)NC(=O)[C@H](C)NC(=O)[C@H](Cc2ccc(O)cc2)NC(=O)[C@H](Cc2c[nH]cn2)NC1=O [GM3γ^210A] ({CH2CO}-[dY]LHYASTYSAYRYAA[dC]-NH2; thioether N-16) 100

Answer with the recorded inhibition at 2.75 µM for the compound listed here: CC(C)C[C@@H]1NC(=O)[C@@H](Cc2ccc(O)cc2)NC(=O)CSC[C@H](C(N)=O)NC(=O)[C@H](C)NC(=O)[C@H](C)NC(=O)[C@H](Cc2ccc(O)cc2)NC(=O)[C@H](CCCNC(=N)N)NC(=O)[C@H](Cc2ccc(O)cc2)NC(=O)[C@@H]2CC[C@@H](C2)NC(=O)[C@H](CO)NC(=O)[C@H](Cc2ccc(O)cc2)NC(=O)[C@H]([C@@H](C)O)NC(=O)[C@H](CO)NC(=O)[C@H](C)NC(=O)[C@H](Cc2ccc(O)cc2)NC(=O)[C@H](Cc2c[nH]cn2)NC1=O [GM3] ({CH2CO}-[dY]LHYASTYS[X1]YRYAA[dC]-NH2; thioether N-16) 66.3

For every record below, what is its inhibition at 2.75 µM?
1. CC(C)C[C@@H]1NC(=O)[C@H](CC(N)=O)NC(=O)[C@H](CC(C)C)NC(=O)[C@H]2C[C@H](C2)NC(=O)[C@H](Cc2c[nH]cn2)NC(=O)[C@H](Cc2ccccc2)NC(=O)[C@@H](Cc2ccc(O)cc2)NC(=O)CSC[C@H](C(N)=O)NC(=O)CNC(=O)[C@@H]2CCCN2C(=O)[C@H](CCCNC(=N)N)NC(=O)[C@H](Cc2ccc(O)cc2)NC(=O)CNC1=O [GM4] ({CH2CO}-[dY]FH[Acbc(cis-1,3)]LNLGYRPG[dC]-NH2; thioether N-13)
2. CC(C)C[C@@H]1NC(=O)[C@H]([C@@H](C)O)NC(=O)[C@H](Cc2ccc(O)cc2)NC(=O)[C@H]([C@@H](C)O)NC(=O)[C@H](Cc2c[nH]cn2)NC(=O)[C@@H]2CCCN2C(=O)[C@@H]2CCCN2C(=O)[C@H](Cc2ccccc2)NC(=O)[C@H]2C[C@H](C2)NC(=O)[C@H](Cc2c[nH]cn2)NC(=O)[C@H](Cc2ccccc2)NC(=O)[C@@H](Cc2ccc(O)cc2)NC(=O)CSC[C@H](C(N)=O)NC1=O [GM1] ({CH2CO}-[dY]FH[Acbc(cis-1,3)]FPPHTYTL[dC]-NH2; thioether N-13)

1. 100
2. 100
